Assayed system: GST
Assay text: SPOT array
Experimental setup: median of control spots 978
Measure: SPOT intensity

Consider the worked cases shown below.
{"columns": ["Binder", "SPOT intensity"],
 "data": [
  ["NPLPKEPRLPKRKVA", 2],
  ["TKRKRPARLIFYDSK", 1],
  ["NTMKKRPAPPSLPSL", 0]
]}

I: SSSSSPPPLPTRRDH
II: STKKPRPPVKSKPKH
Task: Please choose the item with the lower SPOT intensity value from this pair: I and II Kindly give the label for the entry you pick.
Output: I
